Sourced from paper PMC3477848

- target of assay: T1, Dpo1 exo- (SsoDpo1, B-family DNA polymerase) (Sulfolobus solfataricus, UniProt P26811 1-882, D231A;D318A)
- T1 sequence: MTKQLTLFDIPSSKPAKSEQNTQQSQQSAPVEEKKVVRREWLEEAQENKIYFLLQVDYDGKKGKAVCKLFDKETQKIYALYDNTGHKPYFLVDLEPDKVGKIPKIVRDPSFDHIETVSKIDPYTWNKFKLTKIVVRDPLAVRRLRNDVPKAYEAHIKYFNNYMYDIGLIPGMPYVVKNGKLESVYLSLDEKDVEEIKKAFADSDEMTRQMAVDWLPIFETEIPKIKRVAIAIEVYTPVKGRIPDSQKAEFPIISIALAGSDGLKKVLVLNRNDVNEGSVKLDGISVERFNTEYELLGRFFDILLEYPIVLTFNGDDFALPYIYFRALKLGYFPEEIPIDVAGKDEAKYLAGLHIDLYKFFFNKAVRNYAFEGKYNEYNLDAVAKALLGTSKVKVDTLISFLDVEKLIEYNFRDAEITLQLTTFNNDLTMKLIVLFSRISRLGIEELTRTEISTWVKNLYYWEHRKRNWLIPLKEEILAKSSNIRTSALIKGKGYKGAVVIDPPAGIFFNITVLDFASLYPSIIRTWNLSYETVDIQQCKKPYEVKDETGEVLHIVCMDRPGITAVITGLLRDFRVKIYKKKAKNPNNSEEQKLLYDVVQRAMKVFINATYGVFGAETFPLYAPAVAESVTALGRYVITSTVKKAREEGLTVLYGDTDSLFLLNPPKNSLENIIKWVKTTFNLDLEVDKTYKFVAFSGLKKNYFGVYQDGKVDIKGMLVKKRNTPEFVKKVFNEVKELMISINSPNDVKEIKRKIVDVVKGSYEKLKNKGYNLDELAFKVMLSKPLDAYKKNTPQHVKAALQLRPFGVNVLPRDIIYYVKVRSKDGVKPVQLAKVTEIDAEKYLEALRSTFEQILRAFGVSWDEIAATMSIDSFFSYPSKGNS
- experiment notes: fluorescence anisotropy
reported property: Kd (µM)
Lab book: enter the figure in µM, no units written.

Query block: Determine its reported Kd: TTTTTTTTTTCCCGGGCCGGCGTTTCGCCGGCCCGGG (structured_DNA) [37-nt hairpin primer-template, 5'-Cy3]
Result block: 0.208
